experiment: Ratio of drug level in brain to blood in C57BL/6 mouse at 2 mg/kg, ip after 1 hr; type: ADME, organism-based; parameters: dose 2 mg/kg, route intraperitoneal
Listing of recorded Kp at 1 h by entry.
Property measured: Kp at 1 h

>>> reported_result("CCc1c(CCCC(=O)O)cccc1-c1ccc(-c2ccc(OC(C)C)c(C#N)c2)s1")
1
>>> reported_result("CCc1c(CCCC(=O)O)cccc1-c1nnc(-c2ccc(OC(C)C)c(C#N)c2)o1")
0.11
>>> reported_result("CCc1c(CCCC(=O)O)cccc1-c1cnc(-c2ccc(OC(C)C)c(C#N)c2)nc1")
0.47
>>> reported_result("CCc1c(CCCC(=O)O)cccc1-c1noc(-c2ccc(OC(C)C)c(C#N)c2)n1")
0.53
>>> reported_result("CCc1c(CCCC(=O)O)cccc1-c1ccc(-c2ccc(OC(C)C)c(C#N)c2)cc1")
0.93
>>> reported_result("CCc1c(CCCC(=O)O)cccc1-c1nsc(-c2ccc(OC(C)C)c(C#N)c2)n1")
0.36
>>> reported_result("CCc1c(CCN2CCC(C(=O)O)CC2)cccc1-c1nsc(-c2ccc(OC(C)C)c(Cl)c2)n1")
0.52
>>> reported_result("CCc1c(CCN2CCC(C(=O)O)CC2)cccc1-c1nsc(-c2ccc(CC(C)C)c(C#N)c2)n1")
0.23
>>> reported_result("CCc1c(CCCC(=O)O)cccc1-c1cnc(-c2ccc(OC(C)C)c(C#N)c2)s1")
0.38
>>> reported_result("CCc1c(CCCC(=O)O)cccc1-c1nnc(-c2ccc(OC(C)C)c(C#N)c2)s1")
0.21
